This collection of values is drawn from PubChem BioAssay AID2060882.

System: 898857-211-R-J1-PDC complex spheroids, growth % test/control
Assay: Anticancer human tumor 898857-211-R-J1-PDC patient-derived melanoma cell line growth inhibition [RAS]
Conditions: second compound 0.000949 µM; first compound 0.01 µM; hits give low values
The following compounds are listed with their measured viability, T/C values.
Write the value in % as a bare number.

compound | viability, T/C, %
O=C(c1ccc(F)c(F)c1Nc1ccc(I)cc1F)N1CC(O)([C@@H]2CCCCN2)C1 + CCn1c(-c2cccnc2C(C)OC)c2c3cc(ccc31)N1CCOC(CC(NC(=O)C(C(C)C)N(C)C(=O)C3(F)CCN(C(=O)C#CC(C)(C)N(C)C)CC3)C(=O)N3CCCC(N3)C(=O)OCC(C)(C)C2)C1 | 36.4

Consider the record given below.
Incoming: // lookup viability, T/C for C=CC(=O)N1CCN(c2nc(OCC3CCCN3C)nc3c(F)c(-c4nc(N)cc(C)c4C(F)(F)F)c(Cl)cc23)C(C)C1 (configuration not stated) + CCn1c(-c2cc(N3CCN(C)CC3)cnc2C(C)OC)c2c3cc(ccc31)-c1csc(n1)CC(NC(=O)C1CC1C)C(=O)N1CCCC(N1)C(=O)OCC(C)(C)C2
Outgoing: 106

###

System: 898857-211-R-J1-PDC complex spheroids, growth % test/control
Experiment: Anticancer human tumor 898857-211-R-J1-PDC cell line growth inhibition [RAS];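 note: spheroids exposed to compound for seven days before readout; 100% = DMSO vehicle control wells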
Conditions: second compound 0.00949 µM; first compound 0.0316 µM; hits give low values
property: viability, T/C (%)
Provide only the numeric value, understood in %.

Incoming: Query for 898857-211-R-J1-PDC complex spheroids, growth % test/control: what viability, T/C does the record show for NC1c2ccccc2OC12CCN(c1cnc3c(N4CCCc5ncccc54)n[nH]c3n1)CC2 (configuration not stated) + CCn1c(-c2cc(N3CCN(C)CC3)cnc2C(C)OC)c2c3cc(ccc31)-c1csc(n1)CC(NC(=O)C1CC1C)C(=O)N1CCCC(N1)C(=O)OCC(C)(C)C2 ?
Outgoing: 87.7

Incoming: Entry CC(=O)OC12COC1CC(O)C1(C)C(=O)C(O)C3=C(C)C(OC(=O)C(O)C(NC(=O)OC(C)(C)C)c4ccccc4)CC(O)(C(OC(=O)c4ccccc4)C21)C3(C)C (configuration not stated) + CCn1c(-c2cc(N3CCN(C)CC3)cnc2C(C)OC)c2c3cc(ccc31)-c1csc(n1)CC(NC(=O)C1CC1C)C(=O)N1CCCC(N1)C(=O)OCC(C)(C)C2 please
Outgoing: 10.9

Incoming: Proceed to CCC(CC)c1cc(NC2CCC(N)C2)n2nccc2n1 (configuration not stated) + CCn1c(-c2cc(N3CCN(C)CC3)cnc2C(C)OC)c2c3cc(ccc31)-c1csc(n1)CC(NC(=O)C1CC1C)C(=O)N1CCCC(N1)C(=O)OCC(C)(C)C2
Outgoing: 92.2

Incoming: Cc1nc(N2CCC3(CC2)COC(C)C3N)c(CO)nc1Sc1ccnc(N)c1Cl (configuration not stated) + CCn1c(-c2cccnc2C(C)OC)c2c3cc(ccc31)N1CCOC(CC(NC(=O)C(C(C)C)N(C)C(=O)C3(F)CCN(C(=O)C#CC(C)(C)N(C)C)CC3)C(=O)N3CCCC(N3)C(=O)OCC(C)(C)C2)C1 ?
Outgoing: 99.7

Incoming: // repeat for CC(C)NCC(C(=O)N1CCN(c2ncnc3c2C(C)CC3O)CC1)c1ccc(Cl)cc1 (configuration not stated) + CCn1c(-c2cc(N3CCN(C)CC3)cnc2C(C)OC)c2c3cc(ccc31)-c1csc(n1)CC(NC(=O)C1CC1C)C(=O)N1CCCC(N1)C(=O)OCC(C)(C)C2 and report
Outgoing: 85.4

Incoming: Next compound up: Cc1nc(N2CCC3(CC2)COC(C)C3N)c(CO)nc1Sc1ccnc(N)c1Cl (configuration not stated) + CCn1c(-c2cc(N3CCN(C)CC3)cnc2C(C)OC)c2c3cc(ccc31)-c1csc(n1)CC(NC(=O)C1CC1C)C(=O)N1CCCC(N1)C(=O)OCC(C)(C)C2
Outgoing: 96

Incoming: Subsequent entry: CC(Nc1ccc2c(c1)OCCn1cc(N3C(=O)OCC3C(F)F)nc1-2)C(N)=O (configuration not stated) + CCn1c(-c2cc(N3CCN(C)CC3)cnc2C(C)OC)c2c3cc(ccc31)-c1csc(n1)CC(NC(=O)C1CC1C)C(=O)N1CCCC(N1)C(=O)OCC(C)(C)C2
Outgoing: 82.5

Incoming: How about this compound: C=CC(=O)N1CCN(c2nc(OCC3CCCN3C)nc3c(F)c(-c4nc(N)cc(C)c4C(F)(F)F)c(Cl)cc23)C(C)C1 (configuration not stated) + CCn1c(-c2cc(N3CCN(C)CC3)cnc2C(C)OC)c2c3cc(ccc31)-c1csc(n1)CC(NC(=O)C1CC1C)C(=O)N1CCCC(N1)C(=O)OCC(C)(C)C2
Outgoing: 98.9

Incoming: Same lookup for C=CC(=O)Nc1cc(Nc2nccc(-c3cn(C)c4ccccc34)n2)c(OC)cc1N(C)CCN(C)C + CCn1c(-c2cccnc2C(C)OC)c2c3cc(ccc31)N1CCOC(CC(NC(=O)C(C(C)C)N(C)C(=O)C3(F)CCN(C(=O)C#CC(C)(C)N(C)C)CC3)C(=O)N3CCCC(N3)C(=O)OCC(C)(C)C2)C1 , please.
Outgoing: 102

Incoming: Moving on to CCN1CCN(Cc2ccc(Nc3ncc(F)c(-c4cc(F)c5nc(C)n(C(C)C)c5c4)n3)nc2)CC1 + CCn1c(-c2cc(N3CCN(C)CC3)cnc2C(C)OC)c2c3cc(ccc31)-c1csc(n1)CC(NC(=O)C1CC1C)C(=O)N1CCCC(N1)C(=O)OCC(C)(C)C2
Outgoing: 82.3

Incoming: Now the same for C=CC(=O)Nc1cc(Nc2nccc(-c3cn(C)c4ccccc34)n2)c(OC)cc1N(C)CCN(C)C + CCn1c(-c2cc(N3CCN(C)CC3)cnc2C(C)OC)c2c3cc(ccc31)-c1csc(n1)CC(NC(=O)C1CC1C)C(=O)N1CCCC(N1)C(=O)OCC(C)(C)C2
Outgoing: 114

Incoming: And CC(C)n1nc(-c2ccc3oc(N)nc3c2)c2c(N)ncnc21 + CCn1c(-c2cc(N3CCN(C)CC3)cnc2C(C)OC)c2c3cc(ccc31)-c1csc(n1)CC(NC(=O)C1CC1C)C(=O)N1CCCC(N1)C(=O)OCC(C)(C)C2 ?
Outgoing: 35.4
